Give binding signal for every item shown.
target: GST-SBP-SLBP (stem-loop binding protein) (Homo sapiens, UniProt Q14493 1-270); assay: targeted RNA Bind-n-Seq; RBNS binding buffer: 25 mM Tris pH 7.5, 150 mM KCl, 3 mM MgCl2, 0.1% Tween, 0.5 mg/mL BSA, 1 mM DTT; 27 nM protein, 750 pM RNA pool; temperature not stated; high values mean tight binding; conditions: protein: recombinant; tags: N-terminal GST and SBP (pGEX6P1-SBP)
Give a bare numeral; the unit log2 fold change is implied.

Query block: Which binding signal value is on record for consensus (structured_RNA) RNA: GGUCACGUCUCAAUCAACUCCCAAAGGUUUUUUUGAAAGCCACCCAUCAACAGCUCGCAGUCAAG ?
Result block: 1.56

Query block: Which binding signal value is on record for consensus (structured_RNA) RNA: GGUCACGUCUCAAUCAACUCCCAAAGGUCCUUCUUAGGACCACCCAUCAACAGCUCGCAGUCAAG ?
Result block: 3.13

Query block: Which binding signal value is on record for consensus (structured_RNA) RNA: GGUCACGUCUCAAUCAACUCCCAAAGGCCCUUUUAAGGGCCACCCAUCAACAGCUCGCAGUCAAG ?
Result block: 3.52
